Values from ChEMBL document CHEMBL3433997

- testedTarget: Glucose transporter (Leishmania mexicana) (UniProt O61059)
- assayProcedure: ST_JUDE_LEISH: Cytotoxicity at 2uM final concentration against transgenic Leishmania Mexicana promastigotes LmGT2 that are glucose transport deficient and complemented with the L. Mexicana glucose transporter 2. Activity is measured by DNA content using SYBR green in vitro
- Format: functional
inhibition listing for selected compounds.
Numeric answer only, unit % assumed.

{"compound": "COc1ccc(C(=O)c2ccc3[nH]cc(C4=CCN(C)CC4)c3c2)cc1", "testedTarget": "Glucose transporter (Leishmania mexicana) (UniProt O61059)", "measuredValue": 0.07}

Reading of inhibition for CO[C@@H]1C[C@@H](C(=O)Nc2ccccc2)N(c2ccc(C#N)c3ccccc23)C1 with Glucose transporter (Leishmania mexicana) (UniProt O61059): 3.78

Bench note, Glucose transporter (Leishmania mexicana) (UniProt O61059): entry CN(C)CCC(=O)c1ccccc1 , its inhibition = 1.99

Form: item C=Cc1cc(OC)c2c(c1)c(=O)oc1c2cc(OC)c2c(O)ccc([C@H]3O[C@H]([C@H](C)O)[C@H](O)[C@H]3O)c21 ; test system Glucose transporter (Leishmania mexicana) (UniProt O61059); inhibition: 8.58
